meta.source: the Human Domainome abundance scans (Beltran et al. 2025)

B1: KAT8 regulatory NSL complex subunit 2, residues 28 to 91; numbered along this chain, Q9H9L4 (parent)
chain: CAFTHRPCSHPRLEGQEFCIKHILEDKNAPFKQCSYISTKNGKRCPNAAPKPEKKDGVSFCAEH

Variants of: B1
Test: abundance fitness (aPCA) (normalised: wild type 0, dead -1); higher = more abundant; growth selection in yeast, the domain comes from the species named
Settings: Homo sapiens
Classes by abundance fitness: band 1 (below -0.2), band 2 (-0.2 to below -0.1), band 3 (-0.1 or more)

Bin? CAFTHRPCSHPRLEGQEFCIKHILEDKNAPFKQCSYISTKNGKRCPNAAPKPEKKDGVSFEAEH
band 1

Try this variant next: CAFTHRPCSHPRLEGQEFCIKHILEDKNAPFKQCSWISTKNGKRCPNAAPKPEKKDGVSFCAEH
band 2

Follow-up item: CAFTHRPCSHPRLEGQEFCIKHILEDKNGPFKQCSYISTKNGKRCPNAAPKPEKKDGVSFCAEH
band 2
